- test-details: Bioavailability was evaluated in mice after oral administration
- Type: ADME, organism-based
- measurement-setup: mouse, in vivo, read-out: Bioavailabiility
result-type: bioavailability (%)
Record the value in %, omitting the unit from your answer.

Which bioavailability is listed for COc1ccc(Cn2cc(C)c3ccc(C(=O)Nc4c(Cl)cncc4Cl)cc32)cc1 ? 3.7

====

- tested-target: Phosphodiesterase 4 (Cavia porcellus)
- test-details: Inhibitory activity against Phosphodiesterase type IV (PDE4) obtained from guinea-pig macrophage was evaluated
Output criterion met for records whose IC50 is lower than 40 nM, criterion not met for records at or above 40 nM.

Cc1cn(CCC2CCCCC2)c2cc(C(=O)Nc3c(Cl)cncc3Cl)ccc12: criterion met

hey, is IC50 for Cc1cn(Cc2ccc(S(C)(=O)=O)cc2)c2cc(C(=O)Nc3c(Cl)cncc3Cl)ccc12 lower than 40 nM or not? criterion not met

hey, is IC50 for Cc1cn(CC2CCCCC2)c2cc(C(=O)Nc3c(Cl)cncc3Cl)ccc12 lower than 40 nM or not? criterion not met

====

- test-details: Maximum time required to reach Cp max was evaluated in mice after oral administration
- Format: ADME, organism-based
- measurement-setup: mouse, plasma
result-type: Tmax (min)
Record the value in min, omitting the unit from your answer.

Which Tmax is listed for COc1ccc(Cn2cc(C)c3ccc(C(=O)Nc4c(Cl)cncc4Cl)cc32)cc1 ? 30

====

IC50: recorded values
- tested-target: Phosphodiesterase 4 (Cavia porcellus)
- test-details: Inhibitory activity against Phosphodiesterase type IV (PDE4) obtained from guinea-pig macrophage was evaluated
Record the value in µM, omitting the unit from your answer.

Cc1cn(Cc2ccc(C(N)=O)cc2)c2cc(C(=O)Nc3c(Cl)cncc3Cl)ccc12: 0.3
Cc1c[nH]c2cc(C(=O)Nc3c(Cl)cncc3Cl)ccc12: 0.005
Cc1cn(C2CCCC2)c2cc(C(=O)Nc3c(Cl)cncc3Cl)ccc12: 0.015

Which IC50 is listed for Cc1cn(CCCC2CCCCC2)c2cc(C(=O)Nc3c(Cl)cncc3Cl)ccc12 ? 0.22

Which IC50 is listed for Cc1ccc(S(=O)(=O)n2cc(C)c3ccc(C(=O)Nc4c(Cl)cncc4Cl)cc32)cc1 ? 0.045

====

- tested-target: Phosphodiesterase 4 (Cavia porcellus)
- test-details: Binding affinity against PDE4 was determined using [3H]- rolipram in guinea pig brain membrane binding assay
log10 of Ki: recorded values
Record value = log10 of Ki given in nM.

Worked examples follow.
Cc1cn(Cc2ccc3ccccc3c2)c2cc(C(=O)Nc3c(Cl)cncc3Cl)ccc12: 0.85
Cc1cn(C2CCCC2)c2cc(C(=O)Nc3c(Cl)cncc3Cl)ccc12: 2.57
Cc1ccc(S(=O)(=O)n2cc(C)c3ccc(C(=O)Nc4c(Cl)cncc4Cl)cc32)cc1: 2.85
Cc1cn(Cc2cccc3ccccc23)c2cc(C(=O)Nc3c(Cl)cncc3Cl)ccc12: 1.78
Cc1cn(Cc2cccc([N+](=O)[O-])c2)c2cc(C(=O)Nc3c(Cl)cncc3Cl)ccc12: 1.88
COc1ccccc1Cn1cc(C)c2ccc(C(=O)Nc3c(Cl)cncc3Cl)cc21: 1.73
Cc1cn(CCc2ccccc2)c2cc(C(=O)Nc3c(Cl)cncc3Cl)ccc12: 2.45
Cc1cn(CC2CCCCC2)c2cc(C(=O)Nc3c(Cl)cncc3Cl)ccc12: 2.08

What measured log10 of Ki is associated with Cc1cn(CCN2CCOCC2)c2cc(C(=O)Nc3c(Cl)cncc3Cl)ccc12 on Phosphodiesterase 4 (Cavia porcellus)? 2.24

What measured log10 of Ki is associated with Cc1cn(Cc2ccccc2)c2cc(C(=O)Nc3c(Cl)cncc3Cl)ccc12 on Phosphodiesterase 4 (Cavia porcellus)? 2.13

What measured log10 of Ki is associated with Cc1cn(CCCc2ccccc2)c2cc(C(=O)Nc3c(Cl)cncc3Cl)ccc12 on Phosphodiesterase 4 (Cavia porcellus)? 1.61

What measured log10 of Ki is associated with Cc1nc(Cn2cc(C)c3ccc(C(=O)Nc4c(Cl)cncc4Cl)cc32)cs1 on Phosphodiesterase 4 (Cavia porcellus)? 1.38

====

- test-details: Clearance was evaluated in mice after intravenous administration
- Format: ADME, organism-based
- measurement-setup: mouse, in vivo
result-type: clearance (L/h/kg)
Record the value in L/h/kg, omitting the unit from your answer.

Which clearance is listed for COc1ccc(Cn2cc(C)c3ccc(C(=O)Nc4c(Cl)cncc4Cl)cc32)cc1 ? 1.48

====

- tested-target: Phosphodiesterase 4 (Cavia porcellus)
- test-details: Binding affinity against PDE4 was determined using [3H]- rolipram in guinea pig brain membrane binding assay
result-type: log10 of Ki (log10 of the value in nM)
Record value = log10 of Ki given in nM.

Worked examples follow.
CCCCCCCn1cc(C)c2ccc(C(=O)Nc3c(Cl)cncc3Cl)cc21: 1.82
Cc1cn(CCCC2CCCCC2)c2cc(C(=O)Nc3c(Cl)cncc3Cl)ccc12: 2.27
Cc1cn(CCC2CCCCC2)c2cc(C(=O)Nc3c(Cl)cncc3Cl)ccc12: 1.32
Cc1cn(Cc2ccc(S(C)(=O)=O)cc2)c2cc(C(=O)Nc3c(Cl)cncc3Cl)ccc12: 2.48
Cc1noc(C)c1Cn1cc(C)c2ccc(C(=O)Nc3c(Cl)cncc3Cl)cc21: 1.88
Cc1cn(Cc2ccc(C(N)=O)cc2)c2cc(C(=O)Nc3c(Cl)cncc3Cl)ccc12: 2.34

Proceed to the following item.
Which log10 of Ki is listed for COc1cccc(Cn2cc(C)c3ccc(C(=O)Nc4c(Cl)cncc4Cl)cc32)c1 ? 1.88

====

- test-details: Maximum plasma concentration was evaluated in mice after oral administration
- Assay type: ADME, organism-based
- measurement-setup: mouse, read-out: Cp max
result-type: Cmax (ng/mL)
Record the value in ng/mL, omitting the unit from your answer.

Which Cmax is listed for COc1ccc(Cn2cc(C)c3ccc(C(=O)Nc4c(Cl)cncc4Cl)cc32)cc1 ? 9.9

====

- Tested on: PBMC
- test-details: Inhibition of tumor necrosis factor-alpha release from activated human monocyte cells at 0.3 uM
- Format: functional, cell-based
result-type: pIC50
Field pIC50 (float): negative decimal logarithm of the concentration in molar.

Which pIC50 is listed for Cc1cn(CCN2CCOCC2)c2cc(C(=O)Nc3c(Cl)cncc3Cl)ccc12 ? 7.55

====

- test-details: Terminal half life was evaluated in mice after intravenous administration
- Type: ADME, organism-based
- measurement-setup: mouse, in vivo
result-type: half-life (h)
Record the value in h, omitting the unit from your answer.

Which half-life is listed for COc1ccc(Cn2cc(C)c3ccc(C(=O)Nc4c(Cl)cncc4Cl)cc32)cc1 ? 2.6

====

- tested-target: Phosphodiesterase 4 (Cavia porcellus)
- test-details: Inhibitory activity against Phosphodiesterase type IV (PDE4) obtained from guinea-pig macrophage was evaluated
Output condition met for records whose IC50 is lower than 50 nM, condition not met for records at or above 50 nM.

Field: example entries. Status: answers known.
COc1ccccc1Cn1cc(C)c2ccc(C(=O)Nc3c(Cl)cncc3Cl)cc21: condition not met
COc1cccc(Cn2cc(C)c3ccc(C(=O)Nc4c(Cl)cncc4Cl)cc32)c1: condition not met
Cc1noc(C)c1Cn1cc(C)c2ccc(C(=O)Nc3c(Cl)cncc3Cl)cc21: condition not met
Cc1cn(Cc2cccc([N+](=O)[O-])c2)c2cc(C(=O)Nc3c(Cl)cncc3Cl)ccc12: condition not met

Kindly consider the entry below.
hey, is IC50 for Cc1cn(Cc2cccc3ccccc23)c2cc(C(=O)Nc3c(Cl)cncc3Cl)ccc12 lower than 50 nM or not? condition met

====

- tested-target: Phosphodiesterase 4 (Cavia porcellus)
- test-details: Inhibitory activity against Phosphodiesterase type IV (PDE4) obtained from guinea-pig macrophage was evaluated
result-type: IC50 (nM)
Record the value in nM, omitting the unit from your answer.

Cc1cn(CCN2CCOCC2)c2cc(C(=O)Nc3c(Cl)cncc3Cl)ccc12: 380
Cc1cn(Cc2ccccc2)c2cc(C(=O)Nc3c(Cl)cncc3Cl)ccc12: 18

Which IC50 is listed for Cc1cn(CCc2ccccc2)c2cc(C(=O)Nc3c(Cl)cncc3Cl)ccc12 ? 70

====

- tested-target: Phosphodiesterase 4 (Cavia porcellus)
- test-details: Inhibitory activity against Phosphodiesterase type IV (PDE4) obtained from guinea-pig macrophage was evaluated
IC50: recorded values

CCc1cn(S(=O)(=O)c2ccc(C)cc2)c2cc(C(=O)Nc3c(Cl)cncc3Cl)ccc12: 2900 nM
CCCCCCCn1cc(C)c2ccc(C(=O)Nc3c(Cl)cncc3Cl)cc21: 25 nM
Cc1nc(Cn2cc(C)c3ccc(C(=O)Nc4c(Cl)cncc4Cl)cc32)cs1: 42 nM
Cc1cn(CCCc2ccccc2)c2cc(C(=O)Nc3c(Cl)cncc3Cl)ccc12: 25 nM
Cc1cn(Cc2ccc3ccccc3c2)c2cc(C(=O)Nc3c(Cl)cncc3Cl)ccc12: 5.2 nM

Which IC50 is listed for Cc1ccc(S(=O)(=O)n2cc(Cc3ccccc3)c3ccc(C(=O)Nc4c(Cl)cncc4Cl)cc32)cc1 ? > 10000 nM
